Let's look at some compounds and their measured Kb.
Molecular target: B2 bradykinin receptor (Oryctolagus cuniculus, UniProt Q28642)
Sequence (Q28642 whole entry): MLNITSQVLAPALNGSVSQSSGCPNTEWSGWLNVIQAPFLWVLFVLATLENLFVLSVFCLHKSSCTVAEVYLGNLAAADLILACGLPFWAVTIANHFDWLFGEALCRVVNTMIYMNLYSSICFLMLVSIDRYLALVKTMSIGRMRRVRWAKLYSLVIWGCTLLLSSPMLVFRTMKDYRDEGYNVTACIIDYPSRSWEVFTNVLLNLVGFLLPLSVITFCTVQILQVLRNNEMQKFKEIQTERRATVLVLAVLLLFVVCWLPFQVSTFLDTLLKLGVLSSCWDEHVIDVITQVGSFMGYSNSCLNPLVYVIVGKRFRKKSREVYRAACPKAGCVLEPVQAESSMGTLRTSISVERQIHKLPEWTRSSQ
Experiment: In vitro antagonistic activity against kinin-induced rabbit jugular vein contraction.
Format: functional
Conditions: read-out: pA2 (converted)
A number alone suffices; assume µM.

// below: answered compounds
N=C(N)NCCC[C@@H]1NC(=O)[C@@H]2CC3CCCCC3N2C(=O)[C@H]2Cc3ccccc3CN2C(=O)[C@H](Cc2ccccc2)NC(=O)CNC1=O (stereo partly drawn) = 0.117
NC(N)=NCCC[C@@H]1NC(=O)[C@@H]2CC3CCCCC3N2C(=O)[C@H]2Cc3ccccc3CN2C(=O)[C@H](CO)NC(=O)[C@H](Cc2cccs2)NC(=O)CCNC1=O (stereo partly drawn) = 0.0759

Attention now turns to another entry.
N=C(N)NCCC[C@@H]1NC(=O)[C@@H]2CC3CCCCC3N2C(=O)[C@H]2Cc3ccccc3CN2C(=O)[C@H](Cc2cccs2)NC(=O)CNC1=O (stereo partly drawn) yielded Kb of 0.0407
